Here the recorded composite z-score is given for each entry.
target: Albumin (Bos taurus) (UniProt P02769); assay: bovine serum albumin binders on microarray, profiling panel, artefact control for SMM control protein annotation, biochemical, small-molecule microarray, Alexa647 label, 635/667 nm fluorescence (AID 1118); conditions: BSA-A647 binding, fluorescence 635 nm, higher = more signal;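 also: score merges 667 nm emission intensity and signal-to-noise per printed compound spot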
Sequence (P02769 whole entry, looked up): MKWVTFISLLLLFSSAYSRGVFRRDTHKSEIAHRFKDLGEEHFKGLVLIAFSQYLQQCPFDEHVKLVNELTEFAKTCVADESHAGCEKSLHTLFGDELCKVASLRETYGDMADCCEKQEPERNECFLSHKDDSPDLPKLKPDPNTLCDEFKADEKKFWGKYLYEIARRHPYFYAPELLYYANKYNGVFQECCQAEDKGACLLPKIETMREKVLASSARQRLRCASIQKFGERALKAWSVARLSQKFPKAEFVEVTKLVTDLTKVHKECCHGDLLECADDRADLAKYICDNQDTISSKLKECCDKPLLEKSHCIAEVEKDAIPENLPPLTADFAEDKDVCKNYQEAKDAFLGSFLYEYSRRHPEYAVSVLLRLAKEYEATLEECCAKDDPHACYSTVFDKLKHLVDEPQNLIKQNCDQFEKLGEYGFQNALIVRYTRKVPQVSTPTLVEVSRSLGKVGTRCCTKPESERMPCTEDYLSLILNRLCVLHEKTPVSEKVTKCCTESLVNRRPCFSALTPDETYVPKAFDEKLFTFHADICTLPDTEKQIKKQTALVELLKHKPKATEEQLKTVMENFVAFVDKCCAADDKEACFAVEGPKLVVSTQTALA
Please respond with just the number, no unit label.

Reference set, count: 7
{"MOLECULE": "Cc1ccccc1C(O)C1C=CC2C(=O)N(C)C(=O)C2N1N1CCCCC1 (stereo not drawn)", "SYSTEM": "Albumin (Bos taurus) (UniProt P02769)", "PARAMETER": "composite z-score", "OBSERVED_MEASUREMENT": 0.992}
{"MOLECULE": "CC(=O)NCCCC[C@@H]1NC(=O)[C@H]2C[C@@H](C(=O)NCCCCCC[N+](C)(C)C)[C@@H](c3cccc(OCCO)c3)N2C1=O", "SYSTEM": "Albumin (Bos taurus) (UniProt P02769)", "PARAMETER": "composite z-score", "OBSERVED_MEASUREMENT": 0.0306}
{"MOLECULE": "NCCCCCCNC(=O)[C@H]1C[C@H]2C(=O)NCC(=O)N2[C@H]1c1cccc(OCCO)c1", "SYSTEM": "Albumin (Bos taurus) (UniProt P02769)", "PARAMETER": "composite z-score", "OBSERVED_MEASUREMENT": -0.512}
{"MOLECULE": "CC(C)N1C(=O)C[C@@](C(=O)NCc2ccccc2)(c2ccc([N+](=O)[O-])cc2)[C@H]1c1ccc(CO)cc1", "SYSTEM": "Albumin (Bos taurus) (UniProt P02769)", "PARAMETER": "composite z-score", "OBSERVED_MEASUREMENT": 0.467}
{"MOLECULE": "C=C(CCCC)C(=O)CC[C@H](OC(=O)c1cccnc1)c1cccc(OCCO)c1", "SYSTEM": "Albumin (Bos taurus) (UniProt P02769)", "PARAMETER": "composite z-score", "OBSERVED_MEASUREMENT": -0.39}
{"MOLECULE": "O=C1OCC=C[C@H]2OC34C=CCN(c5ccc(Cl)cc5)C(=O)[C@H]3N(CCCCCCO)C(=O)[C@@H]4[C@@H]12 (stereo partly drawn)", "SYSTEM": "Albumin (Bos taurus) (UniProt P02769)", "PARAMETER": "composite z-score", "OBSERVED_MEASUREMENT": -0.95}
{"MOLECULE": "Cc1cc(C)c(C(O)C2C=CC3C(=O)N(C)C(=O)C3N2Nc2ccccc2)c(C)c1 (stereo not drawn)", "SYSTEM": "Albumin (Bos taurus) (UniProt P02769)", "PARAMETER": "composite z-score", "OBSERVED_MEASUREMENT": 0.72}

*Q* Lab note: need composite z-score for O=C1OCCC=C[C@H]2OC34C=CCN(Cc5ccccc5)C(=O)[C@H]3N(CCCCCO)C(=O)[C@@H]4C12 (stereo partly drawn) on Albumin (Bos taurus) (UniProt P02769), anyone have it?
*A* 0.863

----------
assay: yeast growth modulation, basal conditions, primary screen, YJM789 clinical isolate, OD600, 24 h (AID 1089);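 also: growth of clinical yeast isolate S. cerevisiae YJM 789 seeded 1000 cells per well; test concentration not given here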; conditions: S. cerevisiae YJM789 growth, called active from +8 up or from −8 down
Active and inactive are the calls of the source.
Can you answer with just one of these options? true = active, false = inactive

See these solved cases before continuing.
{"COMPOUND_STRUCTURE": "COc1ccc([Si](C)(C)[C@@H]2[C@@H](CC(=O)N3CCC[C@H]3CO)O[C@]3(C(=O)N(C)c4c(Br)cc(C)cc43)[C@H]2C)cc1", "CLASS": "false"}
{"COMPOUND_STRUCTURE": "COc1ccc(C#Cc2ccc3c(c2)[C@]2(C(=O)N3)[C@H](C(=O)NC[C@H](O)c3ccccc3)[C@H]3C(=O)O[C@H](c4ccccc4)[C@H](c4ccccc4)N3[C@@H]2c2ccccc2OCCO)cc1", "CLASS": "false"}
{"COMPOUND_STRUCTURE": "CCOC(=O)C[C@H]1[C@H](OC(=O)Cc2ccc3c(c2)OCO3)[C@@H](NC(=O)C2CCCCC2)c2cc(OCCCO)ccc2N1C(=O)Cc1ccc(OC)cc1", "CLASS": "false"}
{"COMPOUND_STRUCTURE": "Cc1ccc(S[C@]2(C(=O)O)CC(=O)N(C3Cc4ccccc4C3)[C@@H]2c2ccc(CO)cc2I)cc1", "CLASS": "false"}
{"COMPOUND_STRUCTURE": "O=C/C=C/c1ccc(Cl)cc1", "CLASS": "true"}

*Q* // return assay outcome for COC(=O)[C@@]1(Cc2ccccc2)[C@H]2c3cc(C(=O)N(C)C)n(Cc4cc(C)n(C)n4)c3C[C@H]2CN1C(=O)c1ccccc1
*A* false

*Q* # iterate: CC(C)C[C@@H]1NC(=O)[C@H]2C[C@@H](C(=O)NCCCCCNC(=O)CS)[C@@H](c3cccc(OCCO)c3)N2C1=O
*A* false

*Q* Then what about the compound CC(C)N1C(=O)[C@@]2(c3ccc([N+](=O)[O-])cc3)CC(=O)N(CC34CC5CC(CC(C5)C3)C4)[C@@H]2c2ccc(CO)cc21 ?
*A* false

----------
system: Human papillomavirus type 1a E7 protein (residues 1-88); assay: HPV1a E7 small-molecule binders, primary screen, biochemical, small-molecule microarray, residues 1-88, 635 nm (AID 1129); settings: small-molecule microarray binding, fluorescence 635 nm; higher = more signal
PARAMETER: composite z-score
// response body must contain only the number

{"MOLECULE": "COC(=O)C(CC#Cc1ccc2c(c1)[C@]1(C(=O)N2)[C@H](c2ccc(OCCO)cc2)N2[C@H](c3ccccc3)[C@H](c3ccccc3)OC(=O)[C@H]2[C@@H]1C(=O)NC[C@H](O)c1ccccc1)C(=O)OC", "composite z-score": 1.23}
{"MOLECULE": "C=CCOC(=O)[C@H]1[C@@H]2C(=O)O[C@@H](c3ccccc3)[C@@H](c3ccccc3)N2[C@@H](c2ccc(OCCOC(=O)[C@@H]3C[C@@H]4C(=O)NCC(=O)N4[C@@H]3c3ccc(O)cc3)cc2)[C@]12C(=O)Nc1ccccc12", "composite z-score": 1.19}

Proceeding to the next molecule to report its composite z-score.
*Q* Item under review: CCCCCN1CC=CC23O[C@@H]4C=CCOC(=O)[C@@H]4[C@H]2C(=O)N(CCCO)[C@@H]3C1=O (stereo partly drawn) . Reported composite z-score?
*A* 0.789

----------
experiment: anti-His antibody binders, primary screen, artefact control for SMM control protein annotation, biochemical, small-molecule microarray, 635 nm fluorescence (AID 1128); details: anti-His Alexa647 antibody binding, higher = more signal;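 also: score merges feature fluorescence with signal-to-noise for each printed compound spot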
PARAMETER: composite z-score
Give the figure only, with no unit attached.

{"COMPOUND_STRUCTURE": "O=C1N(CCS(=O)(=O)c2ccccc2)Cc2ccccc2C[C@]12N=C(c1ccc(OCCCO)cc1)O[C@@H]2c1ccccc1", "composite z-score": 2.51}
{"COMPOUND_STRUCTURE": "Cc1ccc([C@H]2[C@H](C(=O)O)[C@H](Sc3ccccc3)[C@@H](C(C)C)N2S(=O)(=O)c2ccc(C)cc2)cc1", "composite z-score": 0.229}
{"COMPOUND_STRUCTURE": "C=C(C(=O)CC[C@H](OC(C)=O)c1ccc(OCCO)cc1)C(C)C", "composite z-score": 0.772}
{"COMPOUND_STRUCTURE": "CCCCC=C[C@@H](NC(=O)c1cccs1)c1ccccc1", "composite z-score": 0.813}

Moving on to another compound below.
*Q* So what's the measured composite z-score for this one? CCCNC(=O)[C@@]1(c2ccc([N+](=O)[O-])cc2)CC(=O)N(CC23CC4CC(CC(C4)C2)C3)[C@@H]1c1ccc(CO)cc1
*A* 1.19

----------
test: splicing luciferase reporter signal modulators, primary screen, spliceosome inhibition project, cell-based, HEK293, splice +/- reporter (AID 1101); settings: luminescence, 24 h, higher = more signal, called active from +8 up or from −8 down;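 also: HEK293 cells carrying a splicing-competent luciferase reporter gene; test concentration not given here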
PARAMETER: z-score
Form field (numeric): enter value without unit.

Below, each entry is followed by its recorded z-score result.
{"COMPOUND": "O=C(NCc1ccccc1)[C@]1(CCS(=O)(=O)c2ccccc2)N=C(c2ccc(OCCCO)cc2)O[C@@H]1c1ccccc1", "z-score": 0.637}
{"COMPOUND": "Cc1ccc(S[C@]2(C(=O)NC3CC3)CC(=O)N(Cc3ccccc3)[C@@H]2c2ccc(CO)cc2)cc1", "z-score": -0.61}
{"COMPOUND": "Cc1ccc(S[C@]2(C(=O)NCc3ccccc3)CC(=O)N(Cc3ccccc3Cl)[C@@H]2c2ccc(CO)cc2I)cc1", "z-score": -1.6}
{"COMPOUND": "CC(C)(C)OC(=O)CC[C@@]1(C(=O)NCCN2CCOCC2)N=C(c2ccc(OCCCO)cc2)O[C@@H]1c1ccccc1", "z-score": -1.16}
{"COMPOUND": "CO[C@H]1O[C@H](CO)[C@@H](OC(=O)Nc2ccc(Oc3ccccc3)cc2)[C@H](OC(=O)Nc2ccccc2)[C@H]1OC(=O)Nc1ccccc1", "z-score": 0.511}

*Q* Form field: reported z-score of [N-]=[N+]=Nc1ccccc1C[C@]1(C(=O)NCCN2CCOCC2)N=C(c2ccc(OCCCO)cc2)O[C@H]1c1ccccc1
*A* 0.183

*Q* Moving on to CCOC(=O)C1=CC[C@@H](c2ccccc2)N(S(=O)(=O)c2ccc(C)cc2)[C@H]1C(=O)OCC
*A* -0.287

*Q* Then what about the compound CO[C@H]1O[C@H](CO)[C@@H](OC(=O)Nc2ccc3c(c2)OCO3)[C@H](OC(=O)Nc2ccccc2)[C@H]1OC(=O)Nc1ccccc1 ?
*A* 1.89
